Sourced from patent US20180305332A1

So I've got a bunch of molecules here, and I need their Emax values.
- testedSystem: GST tagged LXRalpha LBD (ligand binding domain) (Homo sapiens, UniProt Q13133)
- Construct: purchased Invitrogen pv4655
- Sequence (Q13133 209-447 limits assumed): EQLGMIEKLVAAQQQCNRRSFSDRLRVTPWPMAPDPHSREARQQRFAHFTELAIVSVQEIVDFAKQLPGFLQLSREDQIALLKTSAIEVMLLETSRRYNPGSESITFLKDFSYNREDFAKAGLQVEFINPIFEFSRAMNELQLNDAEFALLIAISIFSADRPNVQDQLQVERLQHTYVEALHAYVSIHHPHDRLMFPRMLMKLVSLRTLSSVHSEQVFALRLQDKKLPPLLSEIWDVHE
- testDescription: LanthaScreen TR-FRET Liver X Receptor Coactivator Assay, LXR alpha-LBD
- Assay type: biochemical
- condition: activity at max dose (efficacy), relative to reference T0901317; read-out: LXR alpha act @ max dose (%)
// units = %; emit number, no label

QUERY: Give recorded Emax. CN(C)C(=O)c1ccc(N2CCC(C3CCN(C(=O)C(C)(c4ccccc4)C(F)(F)F)CC3)CC2)cc1Cl (stereo not shown)
RESULT: 33

QUERY: Give recorded Emax. CN(C)C(=O)c1ccc(N2CCC(C3CCN(C(=O)C(F)(F)c4ccccc4Cl)CC3)CC2)cc1Cl
RESULT: 74

QUERY: Give recorded Emax. COc1ccc(C2(C(=O)N3CCC(C4CCN(c5ccc(C(=O)N(C)C)c(Cl)c5)CC4)CC3)CCCC2)cc1
RESULT: 0

QUERY: Give recorded Emax. CN(C)C(=O)c1ccc(N2CCC(C3CCN(C(=O)c4c(F)cccc4Cl)CC3)CC2)cc1Cl
RESULT: 31

QUERY: Give recorded Emax. CN(C)C(=O)c1ccc(N2CCC(C3CCN(C(=O)C(C)(C)c4ccccc4)CC3)CC2)cc1Cl
RESULT: 47

QUERY: Give recorded Emax. CN(C)C(=O)c1ccc(N2CCC(C3CCN(S(=O)(=O)c4c(Cl)cccc4Cl)CC3)CC2)cc1Cl
RESULT: 67

QUERY: Give recorded Emax. CN(Cc1ccon1)C(=O)c1ccc(N2CCC(C3CCN(C(=O)[C@](O)(c4ccccc4)C(F)(F)F)CC3)CC2)cc1Cl
RESULT: 28

---

- testedSystem: GST tagged LXRbeta LBD (ligand binding domain) (Homo sapiens)
- Sequence (P55055 222-460 limits assumed): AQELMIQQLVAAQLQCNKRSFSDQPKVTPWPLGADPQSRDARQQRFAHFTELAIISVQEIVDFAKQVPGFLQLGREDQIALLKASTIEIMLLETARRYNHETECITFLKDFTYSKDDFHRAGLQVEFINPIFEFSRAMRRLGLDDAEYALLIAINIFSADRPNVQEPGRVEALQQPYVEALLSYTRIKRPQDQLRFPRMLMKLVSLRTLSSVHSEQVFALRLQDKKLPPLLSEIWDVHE
- testDescription: LanthaScreen TR-FRET Liver X Receptor Coactivator Assay, LXR beta-LBD
- condition: Inflection Point (potency), co-activator recruitment, relative to reference T0901317; read-out: LXR beta IP
So I've got a bunch of compounds here, and I need their log10(EC50) values.
Heads up: the numbers are on a log10 scale; they represent EC50 in nM.

QUERY: Give recorded log10(EC50). CN(C)C(=O)c1ccc(N2CCC(C3CCN(C(=O)C(O)(C(F)(F)F)C(F)(F)F)CC3)CC2)cc1Cl [Example A-35]
RESULT: 0.85

QUERY: Give recorded log10(EC50). CCN(C)C(=O)c1ccc(N2CCC(C3CCN(C(=O)[C@](O)(c4ccccc4)C(F)(F)F)CC3)CC2)cc1Cl [Example E-60]
RESULT: 2.00

QUERY: Give recorded log10(EC50). CN(C)C(=O)c1c(Cl)cc(N2CCC(C3CCN(C(=O)[C@](O)(c4ccccc4)C(F)(F)F)CC3)CC2)cc1Cl [Example A-33]
RESULT: 1.68

QUERY: Give recorded log10(EC50). CN(C)C(=O)c1ccc(N2CCC(C3CCN(C(=O)C4(c5ccc(Cl)cc5)CCC4)CC3)CC2)cc1Cl [Example A-47]
RESULT: 2.25

QUERY: Give recorded log10(EC50). O=C(c1ccc(N2CCC(C3CCN(C(=O)[C@](O)(c4ccccc4)C(F)(F)F)CC3)CC2)cc1Cl)N1CC(N2CCCCC2)C1 [Example E-44]
RESULT: 1.95

QUERY: Give recorded log10(EC50). CN(C)C(=O)c1ccc(N2CCC(C3CCN(C(=O)OC(C)(C)C)CC3)CC2)nc1Cl [Example B-1]
RESULT: 1.30

QUERY: Give recorded log10(EC50). CN(C)C(=O)c1ccc(N2CCC(C3CCN(S(=O)(=O)c4ccccc4C(F)(F)F)CC3)CC2)cc1Cl [Example A-101]
RESULT: 0.90

QUERY: Give recorded log10(EC50). CN(Cc1nccs1)C(=O)c1ccc(N2CCC(C3CCN(C(=O)[C@](O)(c4ccccc4)C(F)(F)F)CC3)CC2)cc1Cl [Example E-49]
RESULT: 2.26

QUERY: Give recorded log10(EC50). CS(=O)(=O)c1ccc(N2CCC(C3CCN(C(=O)[C@](O)(c4ccccc4)C(F)(F)F)CC3)CC2)cc1Cl [Example D-7]
RESULT: 2.26

QUERY: Give recorded log10(EC50). CN(Cc1ccon1)C(=O)c1ccc(N2CCC(C3CCN(C(=O)[C@](O)(c4ccccc4)C(F)(F)F)CC3)CC2)cc1Cl [Example E-52]
RESULT: 2.31

QUERY: Give recorded log10(EC50). COc1ccccc1C(C)(C)C(=O)N1CCC(C2CCN(c3ccc(C(=O)N(C)C)c(Cl)c3)CC2)CC1 [Example A-88]
RESULT: 1.87

QUERY: Give recorded log10(EC50). O=C(c1ccc(N2CCC(C3CCN(C(=O)[C@](O)(c4ccccc4)C(F)(F)F)CC3)CC2)cc1Cl)N1CC(c2cccnc2)C1 [Example E-43]
RESULT: 2.55

QUERY: Give recorded log10(EC50). CC(C)C(O)(C(=O)N1CCC(C2CCN(c3cc(F)c(C(=O)N(C)C)c(F)c3)CC2)CC1)C(F)(F)F [Example D-1]
RESULT: 2.20

QUERY: Give recorded log10(EC50). O=C(c1ccc(N2CCC(C3CCN(C(=O)[C@](O)(c4ccccc4)C(F)(F)F)CC3)CC2)cc1Cl)N1CC(F)C1 [Example E-45]
RESULT: 2.62

QUERY: Give recorded log10(EC50). CN(C)C(=O)c1ccc(N2CCC(C3CCN(C(=O)C(C)(C)c4ccc(Cl)cc4)CC3)CC2)cc1Cl [Example A-44]
RESULT: 2.16

QUERY: Give recorded log10(EC50). CN(C)C(=O)c1ccc(N2CCC(C3CCN(C(=O)C4(c5ccccc5F)CCC4)CC3)CC2)cc1Cl [Example A-73]
RESULT: 1.48

QUERY: Give recorded log10(EC50). Cc1cccc(C(O)(C(=O)N2CCC(C3CCN(c4ccc(C(=O)N(C)C)c(Cl)c4)CC3)CC2)C(F)(F)F)c1 (stereo not shown) [Example A-68]
RESULT: 2.45

QUERY: Give recorded log10(EC50). CC(C)[C@](O)(C(=O)N1CCC(C2CCN(c3ccc(C(=O)N(C)C)c(Cl)c3)CC2)CC1)C(F)(F)F (single isomer, unassigned) [Example A-3]
RESULT: 1.80

QUERY: Give recorded log10(EC50). O=C1CCN(C(=O)c2ccc(N3CCC(C4CCN(C(=O)[C@](O)(c5ccccc5)C(F)(F)F)CC4)CC3)cc2Cl)C1 [Example E-31]
RESULT: 2.26

QUERY: Give recorded log10(EC50). CC(C)(C)OC(=O)N1CCC(C2CCN(c3ccc(S(C)(=O)=O)c(Cl)c3)CC2)CC1 [Example D-9]
RESULT: 2.09

QUERY: Give recorded log10(EC50). CN(C)C(=O)c1ccc(N2CCC(C3CCN(C(=O)OC(C)(C)C)CC3)CC2)cc1Cl [Example A-1]
RESULT: 1.20

QUERY: Give recorded log10(EC50). Cc1ccc(C2(C(=O)N3CCC(C4CCN(c5ccc(C(=O)N(C)C)c(Cl)c5)CC4)CC3)CCC2)cc1 [Example A-72]
RESULT: 2.05

QUERY: Give recorded log10(EC50). CN(C)C(=O)c1ccc(N2CCC(C3CCN(C(=O)C(C)(C)C(F)(F)F)CC3)CC2)cc1Cl [Example A-41]
RESULT: 1.92

QUERY: Give recorded log10(EC50). CN(C)C(=O)c1ccc(N2CCC(C3CCN(C(=O)c4ccccc4Cl)CC3)CC2)cc1Cl [Example A-22]
RESULT: 1.72

QUERY: Give recorded log10(EC50). COC(=O)c1ccc(N2CCC(C3CCN(C(=O)c4c(F)cccc4F)CC3)CC2)cc1Cl [Example E-2]
RESULT: 2.18

QUERY: Give recorded log10(EC50). CN(C)C(=O)c1ccc(N2CCC(C3CCN(C(=O)C(O)(c4ccccc4)C(F)(F)C(F)(F)C(F)(F)F)CC3)CC2)cc1Cl (stereo not shown) [Example A-55]
RESULT: 2.61

QUERY: Give recorded log10(EC50). CC(C)N(C)C(=O)c1ccc(N2CCC(C3CCN(C(=O)[C@](O)(c4ccccc4)C(F)(F)F)CC3)CC2)cc1Cl [Example E-33]
RESULT: 1.85

QUERY: Give recorded log10(EC50). CN(C)C(=O)c1ccc(N2CCC(C3CCN(C(=O)C4(c5ccccc5F)CC4)CC3)CC2)cc1Cl [Example A-71]
RESULT: 1.81
